Recorded values, source patent US8143212B2.

- System: gram positive bacteria
- assay-method-text: MIC by broth microdilution (NCCLS), with or without 30% bovine serum (Table 42)
- Assay type: cell-based
- run-parameters: S. pneumoniae Felton UC41
measurement-label: MIC

Inquiry: What measured MIC goes with `C[C@@H]1[C@H](O)[C@@H](C)/C=C/C=C/C=C/C=C/C=C/C=C/C=C/[C@H](O[C@@H]2O[C@H](C)[C@@H](O)[C@H](N)[C@@H]2O)C[C@@H]2O[C@](O)(C[C@@H](O)C[C@@H](O)[C@H](O)CC[C@@H](O)C[C@@H](O)CC(=O)O[C@H]1C)C[C@H](O)[C@H]2C(=O)O` ?
Reply text: >64 µg/mL

###

- Test system: gram positive bacteria
- assay-method-text: MIC by broth microdilution (NCCLS), with or without 30% bovine serum (Table 42)
- Format: cell-based
- run-parameters: S. pneumoniae Felton UC41
measurement-label: MIC

Inquiry: What measured MIC is associated with `CN[C@H]1C(=O)N[C@@H]2Cc3ccc(cc3)Oc3cc4cc(c3O[C@@H]3O[C@H](C(=O)O)[C@@H](O)[C@H](O)[C@H]3NC(=O)CCCCCCCC(C)C)Oc3ccc(cc3Cl)[C@@H](O)[C@@H]3NC(=O)[C@H](NC(=O)[C@@H]4NC(=O)[C@@H](NC2=O)c2cc(cc(O)c2Cl)Oc2cc1ccc2O)c1ccc(O)c(c1)-c1c(O[C@H]2O[C@H](CO)[C@@H](O)[C@H](O)[C@@H]2O)cc(O)cc1[C@@H](C(=O)NCCCN(C)C)NC3=O` on gram positive bacteria?
Reply text: 0.125 µg/mL

###

- assay-method-text: Pharmacokinetics and safety in subjects with renal impairment / ESRD (VER001-3, -11, -13)
- run-parameters: human, plasma, intravenous, 500 mg, t1/2, Normal Renal Function (N = 6), VER001-11, single dose 500 mg
measurement-label: half-life (days)
Give bare numbers, in days.

Inquiry: What measured half-life goes with CN[C@H]1C(=O)N[C@@H]2Cc3ccc(cc3)Oc3cc4cc(c3O[C@@H]3O[C@H](C(=O)O)[C@@H](O)[C@H](O)[C@H]3NC(=O)CCCCCCCCC(C)C)Oc3ccc(cc3Cl)[C@@H](O)[C@@H]3NC(=O)[C@H](NC(=O)[C@@H]4NC(=O)[C@@H](NC2=O)c2cc(cc(O)c2Cl)Oc2cc1ccc2O)c1ccc(O)c(c1)-c1c(O[C@H]2O[C@H](CO)[C@@H](O)[C@H](O)[C@@H]2O)cc(O)cc1[C@@H](C(=O)NCCCN(C)C)NC3=O [Dalbavancin] ?
Reply text: 13.9
